methodSummary: Lipophilicity by reversed-phase TLC on RP-18 WF254s plates with standardization
studyConditions: methanol/water, molar fraction for which lipophilicity equals 0
Reported φ 0 (intercept of the trend line with abscissa axis) values for the following compounds.
assayEndpoint: φ 0 (intercept of the trend line with abscissa axis)

- compound: "N#CCOc1cc(=O)oc2ccccc12"
  assayResult: 0.607
- compound: "Cc1cc(O)c2c(C)cc(=O)oc2c1 [Compound 2, 5-hydroxy-4,7-dimethylcoumarin]"
  assayResult: 0.675
- compound: "CC(=O)c1c(C)cc2oc(=O)cc(C)c2c1O [Compound 3, 6-acetyl-5-hydroxy-4,7-dimethylcoumarin]"
  assayResult: 0.754
- compound: "Cc1cc(OCC#N)c2c(C)cc(=O)oc2c1"
  assayResult: 0.669
- compound: "O=c1ccc2ccc(O)cc2o1"
  assayResult: 0.506
- compound: "CC(=O)Oc1cc(C)cc2oc(=O)cc(C)c12"
  assayResult: 0.642
- compound: "CC(=O)c1cc2c(C)cc(=O)oc2cc1O [Compound 11, 6-Acetyl-7-hydroxy-4-methylcoumarin]"
  assayResult: 0.526
- compound: "CC(=O)c1c(C)cc2oc(=O)cc(C)c2c1OCC#N"
  assayResult: 0.577
- compound: "CC(=O)Oc1ccc2c(C)cc(=O)oc2c1"
  assayResult: 0.680
- compound: "Cc1cc(=O)oc2cc(O)ccc12 [Compound 8, 7-hydroxy-4-methylcoumarin]"
  assayResult: 0.567
- compound: "CC(=O)c1c(O)ccc2c(C)cc(=O)oc12 [Compound 9, 8-Acetyl-7-hydroxy-4-methylcoumarin]"
  assayResult: 0.697

###

methodSummary: Lipophilicity by reversed-phase TLC on RP-18 WF254s plates with standardization
studyConditions: dioxane/water, molar fraction for which lipophilicity equals 0
# φ 0 (intercept of the trend line with abscissa axis) values compiled below
assayEndpoint: φ 0 (intercept of the trend line with abscissa axis)

- compound: "Cc1cc(OCC#N)c2c(C)cc(=O)oc2c1"
  assayResult: 0.498
- compound: "Cc1cc(=O)oc2cc(O)ccc12 [Compound 8, 7-hydroxy-4-methylcoumarin]"
  assayResult: 0.409
- compound: "CC(=O)Oc1cc(C)cc2oc(=O)cc(C)c12"
  assayResult: 0.474
- compound: "CC(=O)Oc1ccc2c(C)cc(=O)oc2c1"
  assayResult: 0.518
- compound: "CC(=O)c1c(C)cc2oc(=O)cc(C)c2c1O [Compound 3, 6-acetyl-5-hydroxy-4,7-dimethylcoumarin]"
  assayResult: 0.55
- compound: "O=c1ccc2ccc(O)cc2o1"
  assayResult: 0.356
- compound: "CC(=O)c1c(O)ccc2c(C)cc(=O)oc12 [Compound 9, 8-Acetyl-7-hydroxy-4-methylcoumarin]"
  assayResult: 0.508
- compound: "N#CCOc1cc(=O)oc2ccccc12"
  assayResult: 0.452
- compound: "CC(=O)c1cc2c(C)cc(=O)oc2cc1O [Compound 11, 6-Acetyl-7-hydroxy-4-methylcoumarin]"
  assayResult: 0.409
- compound: "CC(=O)c1c(C)cc2oc(=O)cc(C)c2c1OCC#N"
  assayResult: 0.501
- compound: "Cc1cc(O)c2c(C)cc(=O)oc2c1 [Compound 2, 5-hydroxy-4,7-dimethylcoumarin]"
  assayResult: 0.483

###

methodSummary: Lipophilicity by reversed-phase TLC on RP-18 WF254s plates with standardization
studyConditions: dioxane/water

- compound: "CC(=O)c1c(O)ccc2c(C)cc(=O)oc12 [Compound 9, 8-Acetyl-7-hydroxy-4-methylcoumarin]"
  S (slope of the trend line RM vs φ): 3.2472
- compound: "CC(=O)Oc1ccc2c(C)cc(=O)oc2c1"
  S (slope of the trend line RM vs φ): 3.3341
- compound: "O=C(c1ccccc1)c1ccccc1 [Benzophenone, benzophenone, reference compound]"
  S (slope of the trend line RM vs φ): 3.6381
- compound: "CC(=O)c1c(C)cc2oc(=O)cc(C)c2c1OCC#N"
  S (slope of the trend line RM vs φ): 3.2502

###

methodSummary: Lipophilicity by reversed-phase TLC on RP-18 WF254s plates with standardization
studyConditions: isopropanol/water
Consider the following compounds and their measured R M0 (lipophilicity extrapolated to 100 % water) readings.
assayEndpoint: R M0 (lipophilicity extrapolated to 100 % water)

- compound: "O=c1ccc2ccc(O)cc2o1"
  assayResult: 0.5162
- compound: "Nc1ccc(Cl)c(Cl)c1 [3,4-Dichloroaniline, 3,4-dichloroaniline, reference compound]"
  assayResult: 2.149
- compound: "O=[N+]([O-])c1ccccc1O [2-Nitrophenol, 2-nitrophenol, reference compound]"
  assayResult: 1.2375
- compound: "O=C1Nc2ccccc2C1=O [Isatine, isatine, reference compound]"
  assayResult: 0.5885
- compound: "Nc1ccc(Cl)cc1Cl [2,4-Dichloroaniline, 2,4-dichloroaniline, reference compound]"
  assayResult: 2.1269

###

methodSummary: Lipophilicity by reversed-phase TLC on RP-18 WF254s plates with standardization
studyConditions: acetonitrile/water
assayEndpoint: R M0 (lipophilicity extrapolated to 100 % water)

- compound: "Nc1ccc(Cl)cc1Cl [2,4-Dichloroaniline, 2,4-dichloroaniline, reference compound]"
  assayResult: 1.8609
- compound: "Nc1ccc(Cl)c(Cl)c1 [3,4-Dichloroaniline, 3,4-dichloroaniline, reference compound]"
  assayResult: 1.7807
- compound: "O=C1Nc2ccccc2C1=O [Isatine, isatine, reference compound]"
  assayResult: 0.7435
- compound: "O=c1ccc2ccc(O)cc2o1 [Compound 7, umbelliferone]"
  assayResult: 0.7232
- compound: "O=[N+]([O-])c1ccccc1O [2-Nitrophenol, 2-nitrophenol, reference compound]"
  assayResult: 1.1246

###

Quick list: S (slope of the trend line RM vs φ) per entry.
methodSummary: Lipophilicity by reversed-phase TLC on RP-18 WF254s plates with standardization
studyConditions: methanol/water

- compound: "CC(=O)Oc1ccc2c(C)cc(=O)oc2c1 [Compound 10, 7-Acetoxy-4-methylcoumarin]"
  S (slope of the trend line RM vs φ): 2.3174
- compound: "O=C1Nc2ccccc2C1=O [Isatine, isatine, reference compound]"
  S (slope of the trend line RM vs φ): 1.4786
- compound: "CC(=O)Nc1ccc(Cl)c(Cl)c1 [3,4-Dichloroacetanilide, reference compound]"
  S (slope of the trend line RM vs φ): 2.4827
- compound: "CC(=O)c1c(C)cc2oc(=O)cc(C)c2c1O [Compound 3, 6-acetyl-5-hydroxy-4,7-dimethylcoumarin]"
  S (slope of the trend line RM vs φ): 3.2113
- compound: "O=C(c1ccccc1)c1ccccc1 [Benzophenone, benzophenone, reference compound]"
  S (slope of the trend line RM vs φ): 3.2945
- compound: "Cc1cc(O)c2c(C)cc(=O)oc2c1 [Compound 2, 5-hydroxy-4,7-dimethylcoumarin]"
  S (slope of the trend line RM vs φ): 2.746
- compound: "Nc1ccc(Cl)cc1Cl [2,4-Dichloroaniline, 2,4-dichloroaniline, reference compound]"
  S (slope of the trend line RM vs φ): 2.7739

###

S (slope of the trend line RM vs φ) values by entry
methodSummary: Lipophilicity by reversed-phase TLC on RP-18 WF254s plates with standardization
studyConditions: isopropanol/water
assayEndpoint: S (slope of the trend line RM vs φ)

- compound: "CC(=O)Nc1ccc(Cl)c(Cl)c1 [3,4-Dichloroacetanilide, reference compound]"
  assayResult: 4.1116
- compound: "N#CCOc1cc(=O)oc2ccccc12"
  assayResult: 2.2371
- compound: "CC(=O)Oc1ccc2c(C)cc(=O)oc2c1"
  assayResult: 3.436
- compound: "CC(=O)c1c(C)cc2oc(=O)cc(C)c2c1OCC#N"
  assayResult: 3.2079
- compound: "O=c1ccc2ccc(O)cc2o1"
  assayResult: 1.6695

###

methodSummary: Lipophilicity by reversed-phase TLC on RP-18 WF254s plates with standardization
studyConditions: acetonitrile/water, molar fraction for which lipophilicity equals 0
Please respond with Condition met when measured φ 0 (intercept of the trend line with abscissa axis) is strictly beneath 0.4, and with Condition not met in all other cases.

- compound: "CC(=O)c1c(C)cc2oc(=O)cc(C)c2c1O [Compound 3, 6-acetyl-5-hydroxy-4,7-dimethylcoumarin]"
  classification: "Condition not met"
- compound: "O=c1ccc2ccc(O)cc2o1"
  classification: "Condition met"
- compound: "CC(=O)c1c(O)ccc2c(C)cc(=O)oc12 [Compound 9, 8-Acetyl-7-hydroxy-4-methylcoumarin]"
  classification: "Condition not met"
- compound: "Cc1cc(OCC#N)c2c(C)cc(=O)oc2c1"
  classification: "Condition not met"
- compound: "CC(=O)Oc1cc(C)cc2oc(=O)cc(C)c12"
  classification: "Condition not met"
- compound: "Cc1cc(=O)oc2cc(O)ccc12 [Compound 8, 7-hydroxy-4-methylcoumarin]"
  classification: "Condition met"
- compound: "CC(=O)Oc1ccc2c(C)cc(=O)oc2c1"
  classification: "Condition not met"
- compound: "CC(=O)c1cc2c(C)cc(=O)oc2cc1O [Compound 11, 6-Acetyl-7-hydroxy-4-methylcoumarin]"
  classification: "Condition not met"
